System: rodent lifetime carcinogenesis bioassay, tumor incidence TD50
EXPERIMENTAL_PROTOCOL: carcinogenic potency in animals, long-term in vivo studies, CPDB compilation (AID 1745844)
CONDITION_DETAILS: rat; strain Osborne-Mendel; males; by gavage; site: any site (literature study); lesion: several types; types named in the paper; dosed 104 weeks; study length 105 weeks

| SMILES_STRING | RESULT_UNITS | TD50 |
| --- | --- | --- |
| Clc1cc2c(cc1Cl)Oc1cc(Cl)c(Cl)cc1O2 | mg/kg/day | 0.000133 |

* * *

Tested on: rodent lifetime carcinogenesis bioassay, tumor incidence TD50
EXPERIMENTAL_PROTOCOL: carcinogenic potency in animals, long-term in vivo studies, CPDB compilation (AID 1745844)
CONDITION_DETAILS: mouse; strain Swiss; males; in drinking water; site: any site (literature study); lesion: benign tumor; dosed 78 weeks; study length 135 weeks

| SMILES_STRING | TD50, mg/kg/day |
| --- | --- |
| C=COC(C)=O | 6040 |

* * *

System: rodent lifetime carcinogenesis bioassay, tumor incidence TD50
EXPERIMENTAL_PROTOCOL: carcinogenic potency in animals, long-term in vivo studies, CPDB compilation (AID 1745844)
CONDITION_DETAILS: rat; strain Wistar; males; in feed; site: liver; lesion: nodular hyperplasia; dosed 96 weeks; study length 96 weeks

| SMILES_STRING | ASSAY_SYSTEM | TD50 |
| --- | --- | --- |
| CN(C)N=O | rodent lifetime carcinogenesis bioassay, tumor incidence TD50 | 0.782 mg/kg/day |

* * *

Test system: rodent lifetime carcinogenesis bioassay, tumor incidence TD50
EXPERIMENTAL_PROTOCOL: carcinogenic potency in animals, long-term in vivo studies, CPDB compilation (AID 1745844)
CONDITION_DETAILS: rat; strain Wistar; females; inhaled; site: lung; lesion: adenocarcinoma; dosed 26 weeks; study length 126 weeks
MEASURED_PARAMETER: TD50 (mg/kg/day)

| SMILES_STRING | VALUE_REPORTED |
| --- | --- |
| [Cl][Cd][Cl] | 0.206 |

* * *

System: rodent lifetime carcinogenesis bioassay, tumor incidence TD50
EXPERIMENTAL_PROTOCOL: carcinogenic potency in animals, long-term in vivo studies, CPDB compilation (AID 1745844)
CONDITION_DETAILS: mouse; strain C57BL/6; males; in feed; site: multiple organs; lesion: malignant lymphoma, histiocytic type; dosed 52 weeks; study length 69 weeks

| SMILES_STRING | TD50 (mg/kg/day) |
| --- | --- |
| CCCCCC(N)=O | 2660 |
| Cc1ccc(NC(N)=O)cc1 | 441 |

* * *

Test system: rodent lifetime carcinogenesis bioassay, tumor incidence TD50
EXPERIMENTAL_PROTOCOL: carcinogenic potency in animals, long-term in vivo studies, CPDB compilation (AID 1745844)
CONDITION_DETAILS: rat; strain Charles River CD (Sprague-Dawley); females; by gavage; site: liver; lesion: hepatocellular carcinoma; dosed 51 weeks; study length 65 weeks

| SMILES_STRING | ASSAY_SYSTEM | TD50 |
| --- | --- | --- |
| CC/C(=C(\c1ccccc1)c1ccc(OCCN(C)C)cc1)c1ccccc1 | rodent lifetime carcinogenesis bioassay, tumor incidence TD50 | 7.77 mg/kg/day |

* * *

System: rodent lifetime carcinogenesis bioassay, tumor incidence TD50
EXPERIMENTAL_PROTOCOL: carcinogenic potency in animals, long-term in vivo studies, CPDB compilation (AID 1745844)
CONDITION_DETAILS: rat; strain F344/DuCrj; females; in drinking water; site: forestomach; lesion: squamous-cell carcinoma; dosed 50 weeks; study length 50 weeks
MEASURED_PARAMETER: TD50

| SMILES_STRING | ASSAY_SYSTEM | VALUE_REPORTED |
| --- | --- | --- |
| CCCCN(N=O)C(N)=O | rodent lifetime carcinogenesis bioassay, tumor incidence TD50 | 10.2 mg/kg/day |

* * *

Tested on: rodent lifetime carcinogenesis bioassay, tumor incidence TD50
EXPERIMENTAL_PROTOCOL: carcinogenic potency in animals, long-term in vivo studies, CPDB compilation (AID 1745844)
CONDITION_DETAILS: rat; strain Charles River CD (Sprague-Dawley); females; in feed; site: liver; lesion: neoplastic nodule; dosed 104 weeks; study length 104 weeks
Calls of active or inactive are those of the source. The rule behind the calls is not given here.

| COMPOUND | ASSAY_SYSTEM | TD50 |
| --- | --- | --- |
| CCN(CC)C(=S)SSC(=S)N(CC)CC | rodent lifetime carcinogenesis bioassay, tumor incidence TD50 | 41100 mg/kg/day (inactive) |
| CCc1cccc2c3c([nH]c12)C(CC)(CC(=O)O)OCC3 (configuration not stated) | rodent lifetime carcinogenesis bioassay, tumor incidence TD50 | 1010 mg/kg/day (inactive) |

* * *

System: rodent lifetime carcinogenesis bioassay, tumor incidence TD50
EXPERIMENTAL_PROTOCOL: carcinogenic potency in animals, long-term in vivo studies, CPDB compilation (AID 1745844)
CONDITION_DETAILS: mouse; strain B6C3F1; males; inhaled; site: liver; lesion: hepatocellular adenoma; dosed 103 weeks; study length 104 weeks

| SMILES_STRING | RESULT_UNITS | TD50 |
| --- | --- | --- |
| ClC(Cl)=C(Cl)Cl | mg/kg/day | 668 |

* * *

System: rodent lifetime carcinogenesis bioassay, tumor incidence TD50
EXPERIMENTAL_PROTOCOL: carcinogenic potency in animals, long-term in vivo studies, CPDB compilation (AID 1745844)
CONDITION_DETAILS: mouse; strain B6C3F1; males; inhaled; site: Zymbal's gland; lesion: carcinoma; dosed 40 weeks; study length 104 weeks
MEASURED_PARAMETER: TD50 (mg/kg/day)

| SMILES_STRING | RESULT_UNITS | VALUE_REPORTED |
| --- | --- | --- |
| C=CC=C | mg/kg/day | 625 |

* * *

Test system: rodent lifetime carcinogenesis bioassay, tumor incidence TD50
EXPERIMENTAL_PROTOCOL: carcinogenic potency in animals, long-term in vivo studies, CPDB compilation (AID 1745844)
CONDITION_DETAILS: rat; strain Fischer 344; males; in drinking water; site: Zymbal's gland; lesion: carcinoma; dosed 97 weeks; study length 97 weeks
MEASURED_PARAMETER: TD50 (mg/kg/day)

| SMILES_STRING | ASSAY_SYSTEM | RESULT_UNITS | VALUE_REPORTED |
| --- | --- | --- | --- |
| COc1cc(-c2ccc(N=Nc3c(S(=O)(=O)O)cc4cc(S(=O)(=O)O)cc(N)c4c3O)c(OC)c2)ccc1N=Nc1c(S(=O)(=O)O)cc2cc(S(=O)(=O)O)cc(N)c2c1O | rodent lifetime carcinogenesis bioassay, tumor incidence TD50 | mg/kg/day | 132 |

* * *

Test system: rodent lifetime carcinogenesis bioassay, tumor incidence TD50
EXPERIMENTAL_PROTOCOL: carcinogenic potency in animals, long-term in vivo studies, CPDB compilation (AID 1745844)
CONDITION_DETAILS: rat; strain Osborne-Mendel; females; in drinking water; site: liver; lesion: hepatocellular adenoma + hepatocellular carcinoma + neoplastic nodule; dosed 110 weeks; study length 111 weeks

| SMILES_STRING | ASSAY_SYSTEM | RESULT_UNITS | TD50 |
| --- | --- | --- | --- |
| C1COCCO1 | rodent lifetime carcinogenesis bioassay, tumor incidence TD50 | mg/kg/day | 124 |

* * *

Tested on: rodent lifetime carcinogenesis bioassay, tumor incidence TD50
EXPERIMENTAL_PROTOCOL: carcinogenic potency in animals, long-term in vivo studies, CPDB compilation (AID 1745844)
CONDITION_DETAILS: mouse; strain B6C3F1; males; in drinking water; site: adrenal gland; lesion: pheochromocytoma; dosed 103 weeks; study length 104 weeks

| SMILES_STRING | TD50 |
| --- | --- |
| Nc1ccc(Cc2ccc(N)cc2)cc1 | 70 mg/kg/day |

* * *

Test system: rodent lifetime carcinogenesis bioassay, tumor incidence TD50
EXPERIMENTAL_PROTOCOL: carcinogenic potency in animals, long-term in vivo studies, CPDB compilation (AID 1745844)
CONDITION_DETAILS: mouse; strain Swiss albino; females; in drinking water; site: blood vessels; lesion: several types; types named in the paper; dosed 72 weeks; study length 72 weeks

| SMILES_STRING | TD50 |
| --- | --- |
| CN(C)N | 3.65 mg/kg/day |

* * *

Test system: rodent lifetime carcinogenesis bioassay, tumor incidence TD50
EXPERIMENTAL_PROTOCOL: carcinogenic potency in animals, long-term in vivo studies, CPDB compilation (AID 1745844)
CONDITION_DETAILS: mouse; strain B6C3F1; females; by gavage; site: pituitary gland, anterior; lesion: adenoma, NOS; dosed 103 weeks; study length 105 weeks
MEASURED_PARAMETER: TD50

| MOLECULE | MEASURED_PARAMETER | VALUE_REPORTED |
| --- | --- | --- |
| CC(I)C1OCC(CO)O1 (stereo unspecified) | TD50 | 138 mg/kg/day |
